reported property: melting point

Task: Given the compound "C=CCOc1ccc(C(=O)c2ccccc2)cc1" , write its reported melting point.
Result: 71 °C

Task: Given the compound OCc1cc(C2CN(CCCCCCOCCCCc3ccccc3)CO2)ccc1O (racemic) , write its reported melting point.
Result: 72 to 75 °C

Task: Given the compound "CN(c1cccc2cc(-c3ncc(CO)s3)[nH]c12)S(=O)(=O)c1cccs1" , write its reported melting point.
Result: 201 to 202 °C

Task: Given the compound CC(C)c1ccc2c(c1)OC1(OC(=O)C(C)(C)C)c3ccccc3C(=O)C21OC(=O)C(C)(C)C (stereo unspecified) , write its reported melting point.
Result: 153 to 157 °C

Task: Given the compound "COc1ccc(C=O)cc1NC(=O)OCC1c2ccccc2-c2ccccc21" , write its reported melting point.
Result: 139 to 142 °C

Task: Given the compound "O=S1(=O)c2cccc3cccc(c23)N1CCCN1CCN(c2ccccn2)CC1" , write its reported melting point.
Result: 101 °C

Task: Given the compound "COc1cccc(CNC(=O)c2nc3sc(C(=O)O)c(C)c3c(=O)[nH]2)c1" , write its reported melting point.
Result: > 300 °C

Task: Given the compound CC1(C)Cc2nc(C3CCCC3)c(C(=O)c3ccc(C(F)(F)F)cc3)c(-c3ccsc3)c2C(O)C1 (stereo unspecified) , write its reported melting point.
Result: 179 to 182 °C

Task: Given the compound "ClCc1cc(I)cc(I)c1I" , write its reported melting point.
Result: 97 to 98 °C

Task: Given the compound CCN1CC(O)CC1=O (stereo unspecified) , write its reported melting point.
Result: 53 to 54 °C

Task: Given the compound "COc1cc2ncnc(N3CCc4ccc(C(C)C)cc43)c2cc1OC" , write its reported melting point.
Result: 128 to 129 °C

Task: Given the compound "COc1cc2c(cc1CCNC(=O)Cc1ccccc1)CCC2" , write its reported melting point.
Result: 135 °C

Task: Given the compound "O=[N+]([O-])c1ccc(NCCc2ccccc2)c(S(=O)(=O)CCO)c1" , write its reported melting point.
Result: 95 to 95.5 °C

Task: Given the compound "CCCCCCCCS(=O)(=O)CCCC(=O)OO" , write its reported melting point.
Result: 113 to 115 °C

Task: Given the compound CCOC(=O)C1CC(O)CN1C(=O)c1ccc(OC)c(OC)c1 (stereo unspecified) , write its reported melting point.
Result: 128 °C

Task: Given the compound "Brc1ccc(C(Br)Br)nc1" , write its reported melting point.
Result: 59 to 61 °C

Task: Given the compound O=C(O)C(Nc1ccc2ccccc2c1)c1c(Cl)cccc1Cl (stereo unspecified) , write its reported melting point.
Result: 94.5 °C

Task: Given the compound "Cc1cc(-c2noc(C(F)F)n2)cc(C)c1OCCCc1cncs1" , write its reported melting point.
Result: 78 to 80 °C

Task: Given the compound "Cn1cc(Cl)c2cccc(C(=O)c3ccccc3)c21" , write its reported melting point.
Result: 73 to 74.5 °C

Task: Given the compound "CCc1c(C2=NC(C)(C)CO2)ccc(C2=NC(C)(C)CO2)c1CC" , write its reported melting point.
Result: 49 to 50 °C

Task: Given the compound "CCCCCCCCCc1c(C(F)(F)F)noc1NS(=O)(=O)c1ccccc1" , write its reported melting point.
Result: 102 °C

Task: Given the compound O=C1Nc2ccccc2N(C(=O)CN2CCCCC2CN2CCCC2)c2cscc21 (stereo unspecified) , write its reported melting point.
Result: 205 to 207 °C

Task: Given the compound "CC1(C)Oc2c(ccc3oc(C(=O)O)cc(=O)c23)-c2ccc(Cl)cc21" , write its reported melting point.
Result: 257 to 258 °C

Task: Given the compound "CCOC(=O)C(=O)Nc1cc(C(=O)O)ccc1O" , write its reported melting point.
Result: > 300 °C

Task: Given the compound CN(C)CC1CCc2cc(NC(=O)N3CCC(c4ccc(F)cc4)CC3)ccc2C1O (stereo unspecified) , write its reported melting point.
Result: 160 to 163 °C

Task: Given the compound "NS(=O)(=O)c1ccc(NN=Cc2ccc(Cl)cc2Cl)cc1" , write its reported melting point.
Result: 219 to 221 °C

Task: Given the compound "COc1ccccc1NC(=O)c1ccccc1SSc1ccccc1C(=O)Nc1ccccc1OC" , write its reported melting point.
Result: 154 to 155 °C

Task: Given the compound "COC(=O)N1CCN(c2n[nH]c(-c3ccc(Cl)cc3)c2-c2ccncc2)CC1" , write its reported melting point.
Result: 264 to 265 °C

Task: Given the compound "COc1cc(/C=C/C(=O)Nc2ccccc2C(=O)O)ccc1OCc1cccnc1" , write its reported melting point.
Result: 245 to 251 °C

Task: Given the compound C=CCC1(C)OC(=O)Nc2ccc(-c3cccc(Cl)c3)cc21 (stereo unspecified) , write its reported melting point.
Result: 128 to 129 °C

Task: Given the compound CN1CCC(OC2c3ccccc3CCn3cc(-c4ccc(NC(=O)C(C)(C)C)cc4)nc32)CC1 (stereo unspecified) , write its reported melting point.
Result: 120 °C

Task: Given the compound c1ccc(C2SC3(CCNCC3)c3ccccc32)cc1 (stereo unspecified) , write its reported melting point.
Result: 142 to 144 °C

Task: Given the compound O=C1N(CC2CCCO2)c2ccccc2C12COc1cc3c(cc12)CCCC3 (stereo unspecified) , write its reported melting point.
Result: 139 to 141 °C

Task: Given the compound "CCc1ccccc1-c1nc(-c2cccc(OC)c2)nn1C(=O)Nc1ccc(C)cc1" , write its reported melting point.
Result: 141 to 142 °C

Task: Given the compound CCC(CCOC)n1cc(Cl)nc(N2CCc3cc(Cl)cc(Cl)c32)c1=O (stereo unspecified) , write its reported melting point.
Result: 95 to 97 °C

Task: Given the compound "O=P(c1ccccc1)(c1ccccc1)c1cc(O)ccc1O" , write its reported melting point.
Result: 216 to 218 °C

Task: Given the compound N[C@@H](Cc1cccc(OCC(F)(F)F)c1)[C@H](O)c1ccc(F)cc1 (racemic) , write its reported melting point.
Result: 94 to 95 °C

Task: Given the compound "CNc1nc(-c2ccc(SC)cc2)n(-c2ccc(C)c(C)c2)c(=O)c1C#N" , write its reported melting point.
Result: 199 to 205 °C

Task: Given the compound "CN1CC=C(C2c3ccccc3CCc3ccccc32)CC1" , write its reported melting point.
Result: 96 to 98 °C

Task: Given the compound "COC(=S)NCc1cn(-c2cc(F)c(N3CCC(=O)CC3)c(F)c2)nn1" , write its reported melting point.
Result: 175 to 176 °C

Task: Given the compound "Sc1ncc(CCCCc2ccccc2)[nH]1" , write its reported melting point.
Result: 168 to 169 °C
